experimental system: haematopoietic prostaglandin D synthase (H-PGDS) (Homo sapiens, UniProt O60760)
Construct: Full length human H-PGDS cDNA (Invitrogen Ultimate ORF IOH13026) was amplified by PCR; 6-His (N); TEV protease cleavage site (N); made in house; host or cells: E. coli BL21 (DE3*)
Sequence (O60760 whole entry): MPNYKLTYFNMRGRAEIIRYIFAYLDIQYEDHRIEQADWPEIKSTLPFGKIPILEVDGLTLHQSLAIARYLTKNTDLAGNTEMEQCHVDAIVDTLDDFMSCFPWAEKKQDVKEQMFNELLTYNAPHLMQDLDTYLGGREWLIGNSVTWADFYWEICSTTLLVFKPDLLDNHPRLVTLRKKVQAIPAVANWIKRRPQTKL
measurement notes: H-PGDS RapidFire high throughput mass spectrometry assay (conversion of PGH2 to PGD2)
Assay type: biochemical
reported conditions: 10 nM H-PGDS, PGH2 formed in situ by COX-2 from arachidonic acid; four parameter curve fit; read-out: Potency Range (mean pIC50) (converted)
Reported values of IC50 for individual entries

[[record]]
compound = "C[C@]1(O)CC[C@H](NC(=O)c2cnc3nc(C4CC4)ccc3c2)CC1"
quantity_measured = "IC50"
experimental_value = "10 to 79.4 nM"

[[record]]
compound = "C[C@]1(O)C[C@@H](NC(=O)c2cnc3nc(C4CC4)c(Cl)cc3c2)C1"
quantity_measured = "IC50"
experimental_value = "< 10 nM"

[[record]]
compound = "O=C(N[C@H]1C[C@H](N[C@H](CO)C(F)(F)F)C1)c1cnc2nc(C3CC3)ccc2c1"
quantity_measured = "IC50"
experimental_value = "10 to 79.4 nM"

[[record]]
compound = "C[C@H]1CCN1c1nc2ncc(C(=O)N[C@H]3C[C@](C)(O)C3)cc2cc1Cl"
quantity_measured = "IC50"
experimental_value = "< 10 nM"

[[record]]
compound = "CC(N[C@H]1CC[C@H](NC(=O)c2cnc3nc(C4CC4)ccc3c2)CC1)C(F)F (mixture of isomers)"
quantity_measured = "IC50"
experimental_value = "10 to 79.4 nM"


# input Given "CC(C)(O)[C@H]1CC[C@H](NC(=O)c2cnc3cc(N4CCC4)ncc3c2)CC1" , state its recorded IC50.
# output < 10 nM

# input Given "O=C(N[C@H]1C[C@@H](N[C@H](CO)C(F)(F)F)C1)c1cnc2nc(C3CC3)ccc2c1" , state its recorded IC50.
# output 100 to 1000 nM
